assay overview: Cytotoxicity in PHH natural infection assay (Cell Counting Kit-8)
Type: cell-based
measurement context: HBV-infected primary human hepatocytes, CCK8
measurement type: CC50 at 144 h

Look over these answered cases.
• O=C(NC1CC2(C1)CC(c1nc3cc(Cl)ccc3o1)C2)c1ccnc(C(F)(F)F)c1 (centres unmarked) [Example 21] = 82 µM
• CC(C)CC(=O)NC1CC2(C1)CC(c1nc3cc(Cl)ccc3o1)C2 (centres unmarked) [Example 28] = > 100 µM
• O=C(NC1CC2(C1)CC(c1nc3cc(Cl)ccc3o1)C2)c1ccnc(-c2nccs2)c1 (centres unmarked) [Example 16] = > 10 µM
• O=C1CCC(CC(=O)NC2CC3(C2)CC(c2nc4cc(Cl)ccc4o2)C3)N1 (centres unmarked) [Example 37] = > 10 µM
• CS(=O)(=O)c1cncc(C(=O)NC2CC3(C2)CC(c2nc4cc(Cl)ccc4o2)C3)c1 (centres unmarked) [Example 24] = > 100 µM
• NS(=O)(=O)CCCC(=O)NC1CC2(C1)CC(c1nc3cc(Cl)ccc3o1)C2 (centres unmarked) [Example 39] = > 10 µM
• O=C(NCC1CC(O)C1)NC1CC2(C1)CC(c1nc3cc(Cl)ccc3o1)C2 (centres unmarked) [Example 64] = 84.8 µM

Switching to the query record.
**Q:** Please give the measured CC50 at 144 h for this compound: CCN(CC)c1cc(C(=O)NC2CC3(C2)CC(c2nc4cc(Cl)ccc4o2)C3)ccn1 (centres unmarked) [Example 6]
**A:** > 10 µM

###

assay overview: Cytotoxicity in PHH natural infection assay (Cell Counting Kit-8)
Assay type: cell-based
measurement context: HBV-infected primary human hepatocytes, CCK8
Protocol: Detailed procedures regarding primary human hepatocyte (PHH) HBV natural infection assay are described as below. […] HBsAg and HBeAg were detected using alphalisa method using their specific antibodies. For HBV DNA detection, HBV DNA Quantitative Fluorescence Diagnostic Kit (Sansure Biotech Inc.) was used following the manufacture's protocol. Cytotoxicity was determined using Cell Counting Kit-8 (CCK8, Dojindo Molecular Technologies, Inc.).
measurement type: CC50 at 144 h

**Q:** Give its CC50 at 144 h value. Item: O=C(NC1CC2(C1)CC(c1nc3cc(Cl)ccc3o1)C2)C1CCS(=O)(=O)CC1 (stereo not drawn)
**A:** > 100 µM

**Q:** For the compound shown here, Cc1ccc(S(=O)(=O)N2CC(CC(=O)NC3CC4(C3)CC(c3nc5cc(Cl)ccc5o3)C4)C2)cc1 (stereo not drawn) , give the reported CC50 at 144 h.
**A:** > 10 µM

**Q:** Given the entry CC(C)(C)N1CC(C(=O)NC2CC3(C2)CC(c2nc4cc(Cl)ccc4o2)C3)CC1=O (stereo not drawn) , report its measured CC50 at 144 h.
**A:** > 100 µM

###

assay overview: Cytotoxicity in PHH natural infection assay (Cell Counting Kit-8)
Assay type: cell-based
measurement context: HBV-infected primary human hepatocytes, CCK8
measurement type: CC50 at 144 h

Here is how some molecules turned out for CC50 at 144 h.
* N=S(=O)(c1cc(C(=O)NC2CC3(C2)CC(c2nc4cc(Cl)ccc4o2)C3)ccn1)C1CC1 (stereo not drawn) | > 100 µM
* O=C(CC1CS(=O)(=O)C1)NC1CC2(C1)CC(c1nc3cc(Cl)ccc3o1)C2 (stereo not drawn) | > 100 µM

**Q:** Data request, read-out CC50 at 144 h, for Cc1cnc(-c2cc(C(=O)NC3CC4(C3)CC(c3nc5cc(Cl)ccc5o3)C4)ccn2)s1 (stereo not drawn)
**A:** > 10 µM

**Q:** If you can, please state the reported CC50 at 144 h value of O=C(CC1CCCS(=O)(=O)C1)NC1CC2(C1)CC(c1nc3cc(Cl)ccc3o1)C2 (stereo not drawn) .
**A:** 78.9 µM

**Q:** Could you tell me which CC50 at 144 h is on file for O=C(NC1CC2(C1)CC(c1nc3cc(Cl)ccc3o1)C2)C1CCN(S(=O)(=O)C2CC2)C1 (stereo not drawn) ?
**A:** > 10 µM

**Q:** May I ask what CC50 at 144 h has been recorded for NS(=O)(=O)CCC(=O)NC1CC2(C1)CC(c1nc3cc(Cl)ccc3o1)C2 (stereo not drawn) ?
**A:** > 10 µM

###

assay overview: Cytotoxicity in PHH natural infection assay (Cell Counting Kit-8)
Assay type: cell-based
measurement context: HBV-infected primary human hepatocytes, CCK8
measurement type: CC50 at 144 h

Consider the reported CC50 at 144 h for these compounds:
- CS(=O)(=O)N1CCC(CC(=O)NC2CC3(C2)CC(c2nc4cc(Cl)ccc4o2)C3)CC1 (centres unmarked): > 10 µM
- CNS(=O)(=O)Nc1cc(C(=O)NC2CC3(C2)CC(c2nc4cc(Cl)ccc4o2)C3)ccn1 (centres unmarked): > 10 µM
- O=C(CCCS(=O)(=O)NC(=O)C1CCC1)NC1CC2(C1)CC(c1nc3cc(Cl)ccc3o1)C2 (centres unmarked): > 10 µM
- CC(C)S(=O)(=O)NC1CC2(C1)CC(c1nc3cc(Cl)ccc3o1)C2 (centres unmarked): > 100 µM
- CN(C(=O)c1ccnc(S(C)(=O)=O)c1)C1CC2(CC(c3nc4cc(Cl)ccc4o3)C2)C1 (centres unmarked): > 10 µM
- CC(C)(C)C(=O)NC1CC2(C1)CC(c1nc3cc(Cl)ccc3o1)C2 (centres unmarked): > 100 µM

**Q:** Given the entry O=C(NC1CC2(C1)CC(c1nc3cc(Cl)ccc3o1)C2)c1ccnc(S(=O)(=O)CC2CC2)c1 (centres unmarked) , report its measured CC50 at 144 h.
**A:** > 10 µM

**Q:** Find the recorded CC50 at 144 h belonging to CCS(=O)(=O)c1cc(C(=O)NC2CC3(C2)CC(c2nc4cc(Cl)ccc4o2)C3)ccn1 (centres unmarked) and report it.
**A:** 74.1 µM

**Q:** What does the record list as CC50 at 144 h for CCS(=O)(=O)N1CCC(C(=O)NC2CC3(C2)CC(c2nc4cc(Cl)ccc4o2)C3)C1 (centres unmarked) ?
**A:** > 10 µM

**Q:** Give the measured CC50 at 144 h of NC(=O)c1cc(C(=O)NC2CC3(C2)CC(c2nc4cc(Cl)ccc4o2)C3)ccn1 (centres unmarked) .
**A:** > 100 µM

**Q:** Entry under review: CC(=O)N1CCC(C(=O)NC2CC3(C2)CC(c2nc4cc(Cl)ccc4o2)C3)C1 (centres unmarked) . Reported CC50 at 144 h?
**A:** > 10 µM

**Q:** Fill in: CC50 at 144 h of [H][C@]1(NC(=O)c2ccnc(S(=O)(=O)C3CC3)c2)C[C@@]2(C1)C[C@]([H])(c1nc3cc(Cl)ccc3o1)C2 (single isomer, unassigned) [Example 84b] is ___
**A:** > 10 µM

**Q:** I would be grateful if you could share the reported CC50 at 144 h for Cc1c(Cl)cccc1N1CC(C(=O)NC2CC3(C2)CC(c2nc4cc(Cl)ccc4o2)C3)CC1=O (centres unmarked) .
**A:** 42.8 µM

**Q:** Find the recorded CC50 at 144 h belonging to [H][C@@]1(C(=O)N[C@]2([H])C[C@@]3(C2)C[C@@]([H])(c2nc4cc(Cl)ccc4o2)C3)CC(=O)N(C)C1 (single isomer, unassigned) [Example 94c] and report it.
**A:** > 100 µM
